Documented pIC50 across a set of compounds
Molecular target: BTK enzyme (recombinant full-length BTK, hBTK) (Homo sapiens (Human), UniProt Q06187)
Sequence (Q06187 whole entry): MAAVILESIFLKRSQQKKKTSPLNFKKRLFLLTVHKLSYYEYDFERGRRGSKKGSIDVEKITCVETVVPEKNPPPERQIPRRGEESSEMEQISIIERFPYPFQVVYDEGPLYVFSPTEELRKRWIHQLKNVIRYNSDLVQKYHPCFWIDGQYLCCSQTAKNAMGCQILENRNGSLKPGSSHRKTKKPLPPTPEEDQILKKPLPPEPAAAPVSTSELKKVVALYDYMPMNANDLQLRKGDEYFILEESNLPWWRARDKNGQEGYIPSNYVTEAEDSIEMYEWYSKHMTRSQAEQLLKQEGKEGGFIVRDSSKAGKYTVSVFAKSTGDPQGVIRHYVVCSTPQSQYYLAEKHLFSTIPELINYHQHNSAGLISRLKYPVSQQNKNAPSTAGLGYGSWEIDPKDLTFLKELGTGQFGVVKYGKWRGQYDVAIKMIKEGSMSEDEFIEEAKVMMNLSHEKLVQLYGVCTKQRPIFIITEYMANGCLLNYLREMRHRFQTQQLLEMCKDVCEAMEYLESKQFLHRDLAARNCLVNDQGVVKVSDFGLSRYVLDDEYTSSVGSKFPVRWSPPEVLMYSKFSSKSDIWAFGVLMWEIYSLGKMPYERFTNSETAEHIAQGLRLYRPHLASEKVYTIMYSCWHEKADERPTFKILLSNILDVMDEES
Assay: BTK enzymatic activity LANCE TR-FRET assay
Settings: 50 pM hBTK, 25 μM ATP, 2 μM biotin-A5-peptide; compound range 1 μM to 0.017 nM; read-out: BTK binding IC50
Procedure: Btk Enzyme Activity Assay Methods BTK enzymatic activity was determined with the LANCE (Lanthanide Chelate Excite) TR-FRET (Time-resolved fluorescence resonance energy transfer) assay. […] After 60 minutes incubation with detection reagents, reaction plates were read on a PerkinElmer EnVision plate reader using standard TR-FRET protocol. […] IC50 values were determined by 4 parameter robust fit of TR-FRET ratio values vs. (Log10) compound concentrations.
Keep in mind that pIC50 stands for -log10 of concentration in molar terms.

Example entries and their recorded answers appear below.
CCOc1cc([C@@](C)(O)c2cccc(C(F)(F)F)c2)ccc1-c1nc([C@@H]2CC[C@H]3CCC(=O)N3C2)n2c(F)cnc(N)c12 : 8.66
C[C@@](O)(c1ccc(-c2nc([C@@H]3CC[C@H]4CCC(=O)N4C3)n3c(F)cnc(N)c23)cc1)c1cccc(C(F)F)c1 : 9.18
C[C@@](O)(c1ccc(-c2nc([C@@H]3CC[C@H]4CCC(=O)N4C3)n3c(C(F)(F)F)cnc(N)c23)cc1)c1cccc(C(F)(F)F)c1 : 7.65
C[C@](O)(c1ccc(-c2nc([C@@H]3CC[C@H]4CCC(=O)N4C3)n3ccnc(N)c23)cc1)c1cccc(OC(F)(F)F)c1 : 6.23

Lab book: pIC50 of C[C@](O)(c1ccc(-c2nc([C@@H]3CC[C@H]4CCC(=O)N4C3)n3c(Cl)cnc(N)c23)cc1)c1cccc(C(F)F)c1 noted as 6.93

The compound listed as CC(O)(c1ccc(-c2nc([C@@H]3CC[C@H]4CCC(=O)N4C3)n3ccnc(N)c23)cc1)c1cccc(OC(F)F)c1 (some centres unmarked) [Example 144] has a reported pIC50 of 7.17

The compound listed as CC(O)(c1ccc(-c2nc([C@@H]3CC[C@H]4CCC(=O)N4C3)n3ccnc(N)c23)cc1)c1cccc(C2CC2(F)F)c1 (some centres unmarked) [Example 164] shows pIC50 equal to 7.32

// sample CC(O)(c1ccc(-c2nc([C@@H]3CC[C@H]4CCC(=O)N4C3)n3ccnc(N)c23)cc1)c1cccc(C2CC2(F)F)c1 (some centres unmarked) [Example 160] , its pIC50 was 10.15

* * *

System: adenosine uptake into HeLa cells
Test: [3H]Adenosine uptake assay in HeLa cells
Type: cell-based
Details: Homo sapiens, HeLa, [3H]adenosine accumulation in HeLa cells; compound range 10 μM to 0.032 nM; read-out: ADU inhibition IC50
measured-metric: IC50 (nM)
The response must be a number in nM with no trailing unit.

The examples below pair each entry with its known result.
CC(C)c1cccc([C@@](C)(O)c2ccc(-c3nc([C@@H]4CC[C@H]5CCC(=O)N5C4)n4ccnc(N)c34)cc2)c1 : 463
C[C@@](O)(c1ccc(-c2nc([C@@H]3CC[C@H]4CCC(=O)N4C3)n3ccnc(N)c23)cc1)c1cccc(OC(F)(F)F)c1 : 3320
C[C@@](O)(c1ccc(-c2nc([C@H]3CC[C@@H]4COCC(=O)N4C3)n3ccnc(N)c23)cc1)c1cccc(C(F)(F)F)c1 : 1470
Nc1ncc(Cl)n2c([C@@H]3CC[C@H]4CCC(=O)N4C3)nc(-c3ccc(C(O)c4cc(C(F)(F)F)ccc4F)cc3)c12 (stereo partly drawn) : 1070
CC(C)c1cccc([C@](C)(O)c2ccc(-c3nc([C@@H]4CC[C@H]5CCC(=O)N5C4)n4ccnc(N)c34)cc2)c1 : 2010

Here is another molecule to look at.
Lab note: measured IC50 of C[C@](O)(c1ccc(-c2nc([C@@H]3CC[C@H]4CCC(=O)N4C3)n3ccnc(N)c23)cc1)c1cccc(N2CCOCC2)c1 was 8500
